Target: TMEM94 (Homo sapiens, UniProt Q12767)
Sequence (Q12767 1-1356): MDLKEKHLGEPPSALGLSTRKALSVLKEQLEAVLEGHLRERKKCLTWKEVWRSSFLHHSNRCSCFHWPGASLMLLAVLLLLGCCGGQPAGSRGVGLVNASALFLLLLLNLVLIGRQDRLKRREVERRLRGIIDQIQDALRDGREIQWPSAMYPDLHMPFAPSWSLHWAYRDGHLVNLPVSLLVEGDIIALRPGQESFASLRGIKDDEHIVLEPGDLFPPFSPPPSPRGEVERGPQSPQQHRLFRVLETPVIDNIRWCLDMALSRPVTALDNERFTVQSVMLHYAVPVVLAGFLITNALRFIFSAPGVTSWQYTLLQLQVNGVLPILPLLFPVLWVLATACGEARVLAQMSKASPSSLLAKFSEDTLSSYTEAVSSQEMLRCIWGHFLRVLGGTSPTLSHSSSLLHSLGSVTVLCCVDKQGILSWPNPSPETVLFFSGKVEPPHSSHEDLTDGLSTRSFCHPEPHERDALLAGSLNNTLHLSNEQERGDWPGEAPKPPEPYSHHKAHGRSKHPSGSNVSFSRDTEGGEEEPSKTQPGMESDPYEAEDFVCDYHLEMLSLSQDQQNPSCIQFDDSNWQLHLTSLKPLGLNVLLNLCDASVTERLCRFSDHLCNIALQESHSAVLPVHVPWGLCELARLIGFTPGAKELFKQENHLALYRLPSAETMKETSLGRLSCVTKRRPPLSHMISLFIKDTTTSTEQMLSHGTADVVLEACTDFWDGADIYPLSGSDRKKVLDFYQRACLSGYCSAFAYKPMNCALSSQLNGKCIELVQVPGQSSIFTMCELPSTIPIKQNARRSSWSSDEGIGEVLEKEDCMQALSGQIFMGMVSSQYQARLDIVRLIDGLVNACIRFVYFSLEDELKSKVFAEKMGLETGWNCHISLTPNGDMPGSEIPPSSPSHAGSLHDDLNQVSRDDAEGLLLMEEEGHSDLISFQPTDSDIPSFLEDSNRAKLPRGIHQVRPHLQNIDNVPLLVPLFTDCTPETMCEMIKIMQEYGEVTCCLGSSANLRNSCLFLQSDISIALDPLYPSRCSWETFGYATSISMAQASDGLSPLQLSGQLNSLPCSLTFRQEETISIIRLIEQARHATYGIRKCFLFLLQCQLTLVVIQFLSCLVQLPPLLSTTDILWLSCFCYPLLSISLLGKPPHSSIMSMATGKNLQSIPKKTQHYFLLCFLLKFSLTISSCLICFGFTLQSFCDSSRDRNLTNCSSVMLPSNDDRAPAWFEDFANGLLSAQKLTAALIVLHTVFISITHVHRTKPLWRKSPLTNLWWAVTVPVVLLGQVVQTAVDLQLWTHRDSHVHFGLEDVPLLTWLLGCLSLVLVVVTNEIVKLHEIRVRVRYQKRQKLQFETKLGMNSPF

>  <Mol Smiles>
Nc1ncnc2c1ncn2[C@@H]1O[C@H](COP(=O)(O)OP(=O)(O)CP(=O)(O)O)[C@@H](O)[C@H]1O

>  <Display Unit>
µM

>  <Kd>
5.48

$$$$
